Recorded values, source patent US11505556B2.

Test: in vitro
Conditions: mouse, hepatocytes
Sorting guide: entries reporting half-life beneath 20 min go in the True pile, the rest go in the False pile.

Look over these answered cases.
compound: COc1ccc2c3c1O[C@@H]1C(F)CCC4[C@H](C2)N(C(C)Cc2ccccc2)CC[C@]341 (stereo partly shown)
labelClass: False

compound: COc1ccc2c3c1O[C@@H]1C(F)CCC4[C@H](C2)N(C(=O)Cc2ccccc2)CC[C@]341 (stereo partly shown)
labelClass: True

compound: COc1ccc2c3c1O[C@@H]1C(F)CCC4[C@H](C2)N(C(=O)c2ccccc2)CC[C@]341 (stereo partly shown)
labelClass: False

compound: COc1ccc2c3c1O[C@@H]1C(F)CCC4[C@H](C2)N(S(C)(=O)=O)CC[C@]341 (stereo partly shown)
labelClass: False

compound: COc1ccc2c3c1O[C@@H]1C(F)CCC4[C@H](C2)N(S(=O)(=O)Cc2ccccc2)CC[C@]341 (stereo partly shown)
labelClass: True

hey, is half-life for COc1ccc2c3c1O[C@@H]1C(F)CCC4[C@H](C2)N(C2CC2)CC[C@]341 (stereo partly shown) lower than 20 min or not?
True

---

Experiment: in vitro
Settings: mouse, hepatocytes
I'd appreciate it if you could supply half-life values for the items below.
Answers are plain numbers, in min.

compound: COc1ccc2c3c1O[C@@H]1C(F)CCC4[C@H](C2)N(C(=O)C2CC2)CC[C@]341 (stereo partly shown)
quantityUnit: min
half-life: 18.3
//
compound: COc1ccc2c3c1O[C@@H]1C(F)CCC4[C@H](C2)N(S(=O)(=O)c2ccccc2)CC[C@]341 (stereo partly shown)
quantityUnit: min
half-life: 10.9

Now examine the next entry.
Recall and state the measured half-life for COc1ccc2c3c1O[C@@H]1C(F)CCC4[C@H](C2)N(C(=O)C(C)(C)c2ccccc2)CC[C@]341 (stereo partly shown) .
20.8

---

Kindly supply the reported inhibition at 10 µM values for the records listed here.
Target: Cannabinoid CB1 (Homo sapiens)
Sequence (P21554 whole entry): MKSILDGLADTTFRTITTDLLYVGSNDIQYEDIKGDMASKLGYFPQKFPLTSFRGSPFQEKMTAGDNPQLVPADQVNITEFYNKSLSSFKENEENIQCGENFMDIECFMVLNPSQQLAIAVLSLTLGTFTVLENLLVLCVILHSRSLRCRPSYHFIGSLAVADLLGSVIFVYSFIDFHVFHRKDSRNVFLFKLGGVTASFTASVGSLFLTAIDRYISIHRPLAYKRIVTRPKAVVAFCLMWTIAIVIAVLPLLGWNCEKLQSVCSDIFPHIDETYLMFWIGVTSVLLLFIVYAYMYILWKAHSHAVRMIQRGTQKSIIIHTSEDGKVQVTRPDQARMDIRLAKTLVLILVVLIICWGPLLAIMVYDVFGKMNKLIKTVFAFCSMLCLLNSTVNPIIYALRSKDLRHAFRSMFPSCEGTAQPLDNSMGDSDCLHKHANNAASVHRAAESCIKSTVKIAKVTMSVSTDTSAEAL
Experiment: Off-target screening
Format: binding
Answers are plain numbers, in %.

Reference set, count: 3
compound: COc1ccc2c3c1O[C@@H]1C(F)CCC4[C@H](C2)N(S(=O)(=O)c2ccccc2)CC[C@]341 (stereo partly shown)
quantityUnit: %
inhibition at 10 µM: 54

compound: COc1ccc2c3c1O[C@@H]1C(F)CCC4[C@H](C2)N(C(C)Cc2ccccc2)CC[C@]341 (stereo partly shown)
quantityUnit: %
inhibition at 10 µM: 57

compound: COc1ccc2c3c1O[C@@H]1C(F)CCC4[C@H](C2)N(C(=O)C(C)(C)c2ccccc2)CC[C@]341 (stereo partly shown)
quantityUnit: %
inhibition at 10 µM: 82

# evaluate next
# return recorded inhibition at 10 µM for input COc1ccc2c3c1O[C@@H]1C(F)CCC4[C@H](C2)N(S(=O)(=O)Cc2ccccc2)CC[C@]341 (stereo partly shown)
56

---

Please respond with reported half-life for every item in the list.
Experiment: in vitro
Conditions: dog, cultured hepatocytes
One number for each entry, in min.

Past entries and their recorded results:
compound: COc1ccc2c3c1O[C@@H]1C(F)CCC4[C@H](C2)N(C(=O)c2ccccc2)CC[C@]341 (stereo partly shown) [XT-207]
half-life [min]: 39.8

compound: COc1ccc2c3c1O[C@@H]1C(F)CCC4[C@H](C2)N(CC2CC2)CC[C@]341 (stereo partly shown) [XT-203]
half-life [min]: 24.3

compound: COc1ccc2c3c1O[C@@H]1C(F)CCC4[C@H](C2)N(C(=O)C(C)(C)c2ccccc2)CC[C@]341 (stereo partly shown) [XT-216]
half-life [min]: 17.1

compound: COc1ccc2c3c1O[C@@H]1C(F)CCC4[C@H](C2)N(C2CC2)CC[C@]341 (stereo partly shown) [XT-214]
half-life [min]: 37.7

compound: COc1ccc2c3c1O[C@@H]1C(F)CCC4[C@H](C2)N(C(=O)Cc2ccccc2)CC[C@]341 (stereo partly shown) [XT-211]
half-life [min]: 19.1

compound: COc1ccc2c3c1O[C@@H]1C(F)CCC4[C@H](C2)N(S(=O)(=O)C2CC2)CC[C@]341 (stereo partly shown) [XT-212]
half-life [min]: 86.4

Report half-life for COc1ccc2c3c1O[C@@H]1C(F)CCC4[C@H](C2)N(S(=O)(=O)Cc2ccccc2)CC[C@]341 (stereo partly shown) [XT-217]
9.7

---

Test: in vitro
Details: monkey, cultured hepatocytes
I'd appreciate it if you could supply half-life values for the items below.
Please make sure the unit comes right after the number.

Observe how each entry below is paired with its result.
molecule: COc1ccc2c3c1O[C@@H]1C(F)CCC4[C@H](C2)N(C2CC2)CC[C@]341 (stereo partly drawn) [XT-214]
half-life: 14.1 min

molecule: COc1ccc2c3c1O[C@@H]1C(F)CCC4[C@H](C2)N(C(=O)c2ccccc2)CC[C@]341 (stereo partly drawn) [XT-207]
half-life: 12.4 min

# context switch: different molecule, same half-life
Please indicate half-life recorded for COc1ccc2c3c1O[C@@H]1C(F)CCC4[C@H](C2)N(C(=O)C(C)(C)c2ccccc2)CC[C@]341 (stereo partly drawn) [XT-216]
10.6 min

---

Assay: in vitro
Conditions: monkey, cultured hepatocytes
Label scheme for half-life: lower than 10 min is condition not met, 10 min and above is condition met.

Take a look at these entries with their results.
compound: COc1ccc2c3c1O[C@@H]1C(F)CCC4[C@H](C2)N(S(=O)(=O)c2ccccc2)CC[C@]341 (some centres unmarked)
labelClass: condition not met

compound: COc1ccc2c3c1O[C@@H]1C(F)CCC4[C@H](C2)N(C(=O)Cc2ccccc2)CC[C@]341 (some centres unmarked)
labelClass: condition met

Check the entry COc1ccc2c3c1O[C@@H]1C(F)CCC4[C@H](C2)N(C(C)Cc2ccccc2)CC[C@]341 (some centres unmarked) : does half-life equal or exceed 10 min?
condition met

In plain terms: is recorded half-life at least 10 min for COc1ccc2c3c1O[C@@H]1C(F)CCC4[C@H](C2)N(S(C)(=O)=O)CC[C@]341 (some centres unmarked) ?
condition met

Hi, just wondering whether COc1ccc2c3c1O[C@@H]1C(F)CCC4[C@H](C2)N(S(=O)(=O)C2CC2)CC[C@]341 (some centres unmarked) shows half-life of 10 min or higher.
condition met

Tell me whether half-life is at least 10 min here: COc1ccc2c3c1O[C@@H]1C(F)CCC4[C@H](C2)N(CC2CC2)CC[C@]341 (some centres unmarked)
condition met

Check if half-life >= 10 min (inclusive). Item: COc1ccc2c3c1O[C@@H]1C(F)CCC4[C@H](C2)N(S(=O)(=O)Cc2ccccc2)CC[C@]341 (some centres unmarked)
condition not met

Confirm if half-life reported for the compound COc1ccc2c3c1O[C@@H]1C(F)CCC4[C@H](C2)N(C(=O)C2CC2)CC[C@]341 (some centres unmarked) is 10 min or above.
condition met

---

Could you please report measured half-life for the items listed next?
Assay: in vitro
Conditions: rat, cultured hepatocytes
Report the figure along with its unit, number first.

Example compounds with recorded half-life:
compound: COc1ccc2c3c1O[C@@H]1C(F)CCC4[C@H](C2)N(S(=O)(=O)C2CC2)CC[C@]341 (stereo partly drawn)
observed: 14.4 min

compound: COc1ccc2c3c1O[C@@H]1C(F)CCC4[C@H](C2)N(S(=O)(=O)Cc2ccccc2)CC[C@]341 (stereo partly drawn)
observed: 10.2 min

For the next question, use this compound.
Answer with reported half-life of COc1ccc2c3c1O[C@@H]1C(F)CCC4[C@H](C2)N(CC2CC2)CC[C@]341 (stereo partly drawn)
13.2 min

---

Molecular target: UniProtKB Q12809
Sequence (Q12809 whole entry): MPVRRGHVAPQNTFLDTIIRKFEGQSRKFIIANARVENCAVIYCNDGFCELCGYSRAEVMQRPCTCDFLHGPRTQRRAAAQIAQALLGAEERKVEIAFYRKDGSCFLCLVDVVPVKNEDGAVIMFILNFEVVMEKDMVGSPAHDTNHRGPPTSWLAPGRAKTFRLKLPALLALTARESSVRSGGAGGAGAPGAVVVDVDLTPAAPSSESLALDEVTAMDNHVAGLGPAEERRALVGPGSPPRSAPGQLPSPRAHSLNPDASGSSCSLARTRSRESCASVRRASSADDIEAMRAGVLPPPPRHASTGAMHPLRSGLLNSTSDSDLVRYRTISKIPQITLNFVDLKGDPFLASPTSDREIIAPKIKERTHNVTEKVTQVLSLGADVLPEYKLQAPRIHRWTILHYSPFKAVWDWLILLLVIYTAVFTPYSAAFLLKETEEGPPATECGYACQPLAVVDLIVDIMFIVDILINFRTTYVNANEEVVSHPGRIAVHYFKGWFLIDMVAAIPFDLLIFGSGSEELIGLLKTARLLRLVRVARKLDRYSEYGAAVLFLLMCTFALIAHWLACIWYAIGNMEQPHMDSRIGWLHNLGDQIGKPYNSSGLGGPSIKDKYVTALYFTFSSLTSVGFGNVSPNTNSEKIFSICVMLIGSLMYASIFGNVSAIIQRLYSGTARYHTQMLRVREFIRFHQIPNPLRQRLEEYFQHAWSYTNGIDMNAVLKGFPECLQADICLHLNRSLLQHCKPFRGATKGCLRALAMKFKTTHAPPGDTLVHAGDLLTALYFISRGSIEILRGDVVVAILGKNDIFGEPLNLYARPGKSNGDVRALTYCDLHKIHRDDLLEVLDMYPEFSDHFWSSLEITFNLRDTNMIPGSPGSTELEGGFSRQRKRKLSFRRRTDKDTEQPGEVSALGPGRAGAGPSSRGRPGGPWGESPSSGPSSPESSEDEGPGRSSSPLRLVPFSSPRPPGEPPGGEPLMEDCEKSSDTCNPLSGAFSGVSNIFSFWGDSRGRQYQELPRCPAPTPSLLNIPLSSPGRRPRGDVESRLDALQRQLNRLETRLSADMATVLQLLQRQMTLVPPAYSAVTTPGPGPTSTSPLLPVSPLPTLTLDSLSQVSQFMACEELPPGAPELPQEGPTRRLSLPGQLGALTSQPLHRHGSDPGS
Test: hERG inhibition
Settings: human; read-out: hERG inhibition, percent
measuredAttribute: inhibition at 10 µM (%)
Answers are plain numbers, in %.

Supply recorded inhibition at 10 µM for COc1ccc2c3c1O[C@@H]1C(F)CCC4[C@H](C2)N(C(C)Cc2ccccc2)CC[C@]341 (stereo partly shown) here.
51

---

Tested on: off-target screening panel
Test: Off-target inhibition screening (whole panel)
Details: 10 μM test concentration; hit = inhibition at or above the 50% level
measuredAttribute: off-target hits in the screening

These recorded examples may help you get a feel for the data.
compound: O=C1CC[C@]2(O)[C@@H]3Cc4ccc(O)c5c4[C@]2(CCN3CC2CC2)[C@@H]1O5 [(+)-naltrexone, reference compound]
off-target hits in the screening: none

compound: COc1ccc2c3c1O[C@@H]1C(F)CCC4[C@H](C2)N(C2CC2)CC[C@]341 (stereo partly drawn)
off-target hits in the screening: one off-target hit

compound: COc1ccc2c3c1O[C@@H]1C(F)CCC4[C@H](C2)N(S(=O)(=O)Cc2ccccc2)CC[C@]341 (stereo partly drawn)
off-target hits in the screening: two off-target hits

compound: COc1ccc2c3c1O[C@@H]1C(F)CCC4[C@H](C2)N(S(=O)(=O)c2ccccc2)CC[C@]341 (stereo partly drawn)
off-target hits in the screening: two off-target hits

Turning to the following compound.
Output measured off-target hits in the screening for this item: COc1ccc2c3c1O[C@@H]1C(F)CCC4[C@H](C2)N(S(C)(=O)=O)CC[C@]341 (stereo partly drawn)
one off-target hit
